Molecular target: mGAT4 (Mus musculus)
Construct: expressed in transfected cells; host or cells: HEK-293
Sequence (P31650 1-627): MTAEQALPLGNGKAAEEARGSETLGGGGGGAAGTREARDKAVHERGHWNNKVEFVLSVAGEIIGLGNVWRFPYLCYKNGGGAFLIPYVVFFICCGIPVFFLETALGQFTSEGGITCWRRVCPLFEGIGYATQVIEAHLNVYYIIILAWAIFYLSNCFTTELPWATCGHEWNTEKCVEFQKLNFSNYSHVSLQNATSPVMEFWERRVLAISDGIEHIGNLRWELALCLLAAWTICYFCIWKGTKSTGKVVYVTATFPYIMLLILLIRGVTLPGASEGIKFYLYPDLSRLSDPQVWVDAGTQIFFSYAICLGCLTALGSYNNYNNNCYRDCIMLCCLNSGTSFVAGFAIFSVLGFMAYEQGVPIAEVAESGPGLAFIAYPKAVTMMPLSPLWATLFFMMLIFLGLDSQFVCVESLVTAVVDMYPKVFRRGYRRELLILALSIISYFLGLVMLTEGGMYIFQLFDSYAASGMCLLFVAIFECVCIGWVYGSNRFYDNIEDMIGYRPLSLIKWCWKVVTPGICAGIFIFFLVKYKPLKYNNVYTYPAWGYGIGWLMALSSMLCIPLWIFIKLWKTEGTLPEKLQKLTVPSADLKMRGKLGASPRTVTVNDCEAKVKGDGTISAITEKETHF
Assay: [3H]GABA uptake assay in HEK-293 cells stably expressing mGAT4
Type: cell-based
Conditions: [3H]GABA uptake; read-out: pIC50 ± SEM mGAT4 (converted)
Overview of recorded IC50 for various compounds
Numeric answer only, unit µM assumed.

Completed entries (count: 10):
CN(CCON=C(c1ccccc1)c1ccccc1)C(CCO)C(=O)NCc1ccc(Cl)c(Cl)c1 (centres unmarked) [Compound 47c]; 7.08
CN(CCON=C(c1ccccc1)c1ccccc1)C(CO)C(=O)NCc1ccc(F)cc1 (centres unmarked) [Compound 59c]; 16.6
CN(CCON=C(c1ccccc1)c1ccccc1)C(CCN)C(=O)NCc1ccccc1Cl (centres unmarked) [Compound 50a]; 20.4
O=C(NCc1ccccc1)C(CO)N1CCC(=C2c3ccccc3CCc3ccccc32)CC1 (centres unmarked); 23.4
CN(CCC=C1c2ccccc2C=Cc2ccccc21)C(CO)C(=O)NCc1ccc(Cl)cc1 (centres unmarked) [Compound 55c]; 16.6
Cc1ccc(CNC(=O)[C@@H](C[C@H](C)O)N(C)CCC=C2c3ccccc3CCc3ccccc32)cc1 (relative stereo) [2RS,4SR-39c]; 6.92
Cc1ccsc1C(=C1CCN(C(CO)C(=O)NCc2ccccc2)CC1)c1sccc1C (centres unmarked) [Compound 54a]; 44.7
CC(O)CC(C(=O)NCc1ccccc1)N(C)CCON=C(c1ccccc1)c1ccccc1 (centres unmarked) [2RS,4RS-45]; 28.2
C[C@@H](O)C[C@H](C(=O)NCc1ccc(Cl)cc1)N(C)CCC=C1c2ccccc2CCc2ccccc21 (relative stereo) [2RS,4RS-39b]; 9.12
O=C(NCc1ccccc1)C(CO)N1CCC(=C2c3ccccc3-c3ccccc32)CC1 (centres unmarked); 36.3

Kindly review the next compound as well.
Lab book: IC50 of CN(CCON=C(c1ccccc1)c1ccccc1)C(CCO)C(=O)NCc1ccccc1 (centres unmarked) [Compound 47a] noted as 14.8

---

target: mGAT2 (Mus musculus); construct: expressed in transfected cells; host or cells: HEK-293; assay: [3H]GABA uptake assay in HEK-293 cells stably expressing mGAT2; assay type: cell-based; settings: [3H]GABA uptake; read-out: pIC50 ± SEM mGAT2 (converted)
Sequence (P31651 whole entry): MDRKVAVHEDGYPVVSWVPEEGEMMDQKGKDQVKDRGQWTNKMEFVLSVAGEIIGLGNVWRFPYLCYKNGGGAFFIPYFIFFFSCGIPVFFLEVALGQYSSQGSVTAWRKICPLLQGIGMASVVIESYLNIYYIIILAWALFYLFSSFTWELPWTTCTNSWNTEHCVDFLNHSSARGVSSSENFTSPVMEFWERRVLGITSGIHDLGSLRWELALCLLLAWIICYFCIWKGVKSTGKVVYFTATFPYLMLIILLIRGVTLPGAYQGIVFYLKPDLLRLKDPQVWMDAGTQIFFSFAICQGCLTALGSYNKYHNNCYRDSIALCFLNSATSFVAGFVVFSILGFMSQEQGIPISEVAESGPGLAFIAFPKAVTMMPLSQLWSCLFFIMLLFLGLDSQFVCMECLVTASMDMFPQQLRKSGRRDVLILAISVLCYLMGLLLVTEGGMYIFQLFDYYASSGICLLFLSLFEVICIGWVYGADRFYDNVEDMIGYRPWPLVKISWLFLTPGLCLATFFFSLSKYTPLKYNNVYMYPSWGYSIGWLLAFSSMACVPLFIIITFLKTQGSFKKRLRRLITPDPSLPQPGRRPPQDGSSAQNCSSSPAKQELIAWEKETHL
Overview of recorded IC50 for various compounds
Numeric answer only, unit µM assumed.

Cc1ccc(CNC(=O)[C@@H](C[C@H](C)O)N(C)CCC=C2c3ccccc3CCc3ccccc32)cc1 (relative stereo) [2RS,4SR-39c]; 8.13
CC(=O)NCCC(C(=O)NCc1ccccc1Cl)N(C)CCON=C(c1ccccc1)c1ccccc1 (stereo not shown) [Compound 51a]; 13.2
CC(O)CC(C(=O)NCc1ccc(F)cc1)N(C)CCC=C1c2ccccc2CCc2ccccc21 (stereo not shown) [2RS,4RS-39a]; 12.6
Cc1ccsc1C(=C1CCN(C(CO)C(=O)NCc2ccc(F)cc2)CC1)c1sccc1C (stereo not shown) [Compound 54c]; 13.8
CC(O)CC(C(=O)NCc1ccccc1)N1CCC(=C2c3ccccc3CCc3ccccc32)CC1 (stereo not shown) [2RS,4RS-43a]; 56.2
Cc1ccc(CNC(=O)C(CO)N(C)CCC=C2c3ccccc3CCc3ccccc32)cc1 (stereo not shown) [Compound 56e]; 28.8

Lab book: IC50 of CN(CCC=C1c2ccccc2C=Cc2ccccc21)C(CO)C(=O)NCc1ccccc1Cl (stereo not shown) [Compound 55b] noted as 15.8

Origin of values: paper PMC8397297
